- measurement.protocol: Reducing power by the Somogyi-Nelson method, represented in terms of DE
- Format: physicochemical
- measurement.setup: high-purity preparations, Somogyi-Nelson method
reported.property: DE of saccharide preparation
Answers are plain numbers.

For orientation, consider the following solved cases.
mol.smiles	DE of saccharide preparation
OC[C@H]1O[C@H](O[C@H]2O[C@H](CO)[C@@H](O[C@H]3O[C@H](CO)[C@@H](O)[C@H](O)[C@H]3O)[C@H](O)[C@H]2O)[C@H](O)[C@@H](O)[C@@H]1O	0.83
OC[C@H]1O[C@H](O[C@H]2O[C@H](CO)[C@@H](O[C@H]3O[C@H](CO)[C@@H](O[C@H]4O[C@H](CO)[C@@H](O[C@H]5O[C@H](CO)[C@@H](O[C@H]6O[C@H](CO)[C@@H](O)[C@H](O)[C@H]6O)[C@H](O)[C@H]5O)[C@H](O)[C@H]4O)[C@H](O)[C@H]3O)[C@H](O)[C@H]2O)[C@H](O)[C@@H](O)[C@@H]1O	0.27

Shift focus to the following entry.
I have this compound here, OC[C@H]1O[C@H](O[C@H]2O[C@H](CO)[C@@H](O[C@H]3O[C@H](CO)[C@@H](O[C@H]4O[C@H](CO)[C@@H](O)[C@H](O)[C@H]4O)[C@H](O)[C@H]3O)[C@H](O)[C@H]2O)[C@H](O)[C@@H](O)[C@@H]1O , and I need its recorded DE of saccharide preparation.
0.35
